- assay target: T1, human Mcl-1 a.a. 172-327 with C-terminal avi-6his tag (human)
- T1 chain: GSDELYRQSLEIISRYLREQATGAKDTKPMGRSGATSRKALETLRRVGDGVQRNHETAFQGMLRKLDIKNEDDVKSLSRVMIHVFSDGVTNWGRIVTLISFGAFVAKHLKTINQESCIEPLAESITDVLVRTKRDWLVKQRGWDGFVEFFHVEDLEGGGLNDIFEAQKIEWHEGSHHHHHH
- run description: BLI, biotinylated target on streptavidin sensor, range of analyte concentrations
Reported pKd values follow for various binders
Entry type: numeric. Quantity: pKd, the -log10 of concentration in molar units.

F-ECM04 (designed binder) ADPKKVLDKAKDQAENRVRELKQKLEELYKEARKLDLTQEMRKKLEVAALGAVLAAHGDILNAIMQAKEEADKLKKAGLVNSQQLDELKRRLEELKEEALRKASDYGKEFHLKRRYG :: 6.59
X-CDP07 (designed binder) ADPKKVLDKAKDRAENVVRKLKKELEELYKEARKLDLTQEMRDRIRLAAIAARIAAFGDIFHAIMEALEEARKLKKAGLVNSQQLDELKRRLEELDEEAAQRAEKLGKEFELKLEY :: 6.76
10-CDP01 (designed binder, also called B-CDP01) ADPKKVLDKAKDQAENRVRELKQELERLYKEARKLDLTQEMRRKLEWRYIAAMLKAIGDILNAIAQAENEADKLKKAGLVNSQQLDELRRRLEELAKEAARKAHDYGREFQLKLEY :: 9.33

Reported pKd for MINDI (Mcl-1-inhibiting design acting intracellularly) (designed binder, also called M-CDP04; αMCL1) ADPKKVLDKAKDQAENRVRELKQVLEELYKEARKLDLTQEMRKKLIERYAAAIIRAIGDINNAIYQAKQEAEKLKKAGLVNSQQLDELLRRLDELQKEASRKANEYGREFELKLEY was 9.82

// pKd lookup, binder = W-CDP03 (designed binder) DPKKVFDEAKDRAENNVRRLKQKLEELYKEARKKDLTQEEREKLKEKYKTAMAAAALAAIGDAFNALLKARKLHKNGQVNEQQLEELARRLQELAKEAFQKAKDYANEFEYKLEY , result: 7.26

Lab note: measured pKd of F-CDP01 (designed binder) ADPKKVLDKAKDQAENRVRELKQKLEELYKEARKLDLTQEMRKKLQYAAIGAMLAAIGDILNAIMQAKQEADKLKKAGLVNSQQLDELKRRLEELKEEALRKAHDYGSEFYLKLEY was 8.34

pKd for FINDI (designed binder, also called αBFL1) ADPKKVLDKAKDQAENRVRELKQKLEELYKEARKLDLTQEKRKKLEVATLGAVLAAHGDILNAIMQAKEEADKLKKAGLVNSQQLDELKRRLEELKEEALRKASDYGNEFHLKRRY is 5.77

The value of pKd measured for the binder 10-ECM01 (designed binder) ADPKKILDKAKDQVENRVRELKQELERLYKEARKLDLTQEMRRKLHVRYIAAMLKAIAAILNAIAQAENEADKLKKAGLVNSQQLDELRRRLEELTEEAAQKAHDYGREFQLKLEYG turned out to be 5.44
